# experiment.description: self-splicing fitness, log relative to wild type (ln ratio); higher = more splicing; Tetrahymena group I intron in knt gene, E. coli kanamycin selection, DiMSum; sequences stand for … in CUCUCU…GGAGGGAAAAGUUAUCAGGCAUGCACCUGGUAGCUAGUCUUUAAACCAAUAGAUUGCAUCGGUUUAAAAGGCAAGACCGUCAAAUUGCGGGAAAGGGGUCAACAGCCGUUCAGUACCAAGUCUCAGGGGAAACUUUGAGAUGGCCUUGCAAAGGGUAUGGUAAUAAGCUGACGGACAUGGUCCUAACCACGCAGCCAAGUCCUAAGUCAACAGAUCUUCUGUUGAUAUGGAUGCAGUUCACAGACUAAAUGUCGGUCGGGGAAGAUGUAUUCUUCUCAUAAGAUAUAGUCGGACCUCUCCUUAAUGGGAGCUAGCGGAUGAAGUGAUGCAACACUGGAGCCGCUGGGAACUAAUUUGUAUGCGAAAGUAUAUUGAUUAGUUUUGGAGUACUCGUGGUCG;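 further: selection with 25 µg/mL kanamycin versus none on LB agar overnight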
# condition.notes: 37 °C
Reported self-splicing fitness (ln) values for the following sequences.

The examples below pair each entry with its known result.
seq.text | result.type | reported.measurement
CUCAAGCAAUAUUACGUCCA | self-splicing fitness (ln) | -1.51
AACAAGCAAUAUUACGCCAG | self-splicing fitness (ln) | -1.24
GUCAAGCAAUAUUACGCCGA | self-splicing fitness (ln) | -1.08

Q) Please list self-splicing fitness (ln) recorded for the sequence "UCUAAGCAAUAUUACGAGGA"
A) -2.72

Q) Please list self-splicing fitness (ln) recorded for the sequence "GAUCAGCAAUAUUACGUACG"
A) -0.586

Q) Please list self-splicing fitness (ln) recorded for the sequence "ACUCAGCAAUAUUACGUUUA"
A) -0.51

Q) Please list self-splicing fitness (ln) recorded for the sequence "GAUGAGCAAUAUUACGGAGG"
A) -3.23
